# test-summary: chemical genetic growth profiling, strain panel (AID 1159580);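 note: tested at 20 µM; growth read once vehicle control cultures reached saturation at 30 °C; 1 = growth at the plate median or of vehicle wells; lower values mean less growth of the strain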
# condition-context: S. cerevisiae deletion strains, growth OD, locus YNL197C, strain WHI3, active compounds read low
In all, about 5,500 compounds went through this assay and about 2,000 (36%) were called active. About 18% were inconclusive and are not listed. The list shows a part of the results.
quantity-measured: normalized growth
// print number alone

Reference set, count: 2
[
  {
    "molecule": "CCn1c(=O)[nH]c2cc(Cl)c(Cl)cc21",
    "quantity-measured": "normalized growth",
    "measured": 1
  },
  {
    "molecule": "Oc1ccccc1O",
    "quantity-measured": "normalized growth",
    "measured": 1.02
  }
]

// NC(=O)CN1CC(O)CC1=O (stereo unspecified) : normalized growth value = 1.01

// O=C(O)c1cc(=O)cc(C(=O)O)[nH]1 : normalized growth value = 1.03

// Cn1cnc2c1c(=O)[nH]c(=O)n2C : normalized growth value = 1.02

// Oc1cc2c(cc1O)[C@H]1c3ccccc3CN[C@@H]1CC2 : normalized growth value = 1.02

// CCCCC/C=C\CC(O)/C=C/c1cccc(CC(O)CCCCO)n1 (stereo unspecified) : normalized growth value = 0.974

###

# test-summary: chemical genetic growth profiling, strain panel (AID 1159580);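 note: tested at 20 µM; growth read once vehicle control cultures reached saturation at 30 °C; 1 = growth at the plate median or of vehicle wells; lower values mean less growth of the strain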
# condition-context: S. cerevisiae deletion strains, growth OD, strain wtn01, active compounds read low
Screen size: about 5,500 compounds; about 2,000 (36%) were called active. Not shown: some 18% with an inconclusive outcome. The list shows a part of the results.
quantity-measured: normalized growth
// print number alone

Reference set, count: 5
[
  {
    "compound": "COC(=O)C[C@H]1C(C)(C)[C@@H](OC(C)=O)[C@@H]2CC3=C4CC(=O)O[C@@H](c5ccoc5)[C@]4(C)CCC3[C@@]1(C)C2=O (stereo partly drawn)",
    "normalized growth": 0.978
  },
  {
    "compound": "O=C(O)c1cc(=O)c2ccccc2[nH]1",
    "normalized growth": 0.992
  },
  {
    "compound": "CN1CCCCC1c1ccc(-c2cccnc2)nc1 (stereo not drawn)",
    "normalized growth": 0.983
  },
  {
    "compound": "C[C@]12CC[C@@H](O)C[C@H]1CCc1ccccc12",
    "normalized growth": 0.99
  },
  {
    "compound": "Cn1cnc2c1c(=O)[nH]c(=O)n2C",
    "normalized growth": 1.01
  }
]

// COc1ccccc1OCC(O)COC(N)=O (stereo not drawn) : normalized growth value = 0.991

// CC(=O)O[C@@H]1C2CC[C@@H]3C1(C[C@@H](O)[C@@]1(O)[C@@H](C[C@H](O)C1(C)C)[C@]3(C)O)C[C@@]2(C)O (stereo partly drawn) : normalized growth value = 0.985

// Cn1c(=O)[nH]c2nc[nH]c2c1=O : normalized growth value = 1.02

###

# test-summary: chemical genetic growth profiling, strain panel (AID 1159580);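 note: tested at 20 µM; growth read once vehicle control cultures reached saturation at 30 °C; 1 = growth at the plate median or of vehicle wells; lower values mean less growth of the strain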
# condition-context: S. cerevisiae deletion strains, growth OD, locus YOR136W, strain idh2, active compounds read low
Out of some 5,500 compounds screened, about 2,000 (36%) were called active. Inconclusive results (about 18%) are left out. This is one part of the list.
Quick reference: normalized growth of the listed items.
// print number alone

Reference set, count: 6
[
  {
    "compound": "COC1=CC23CCCN2CCc2cc4c(cc2C3C1O)OCO4 (stereo not given)",
    "quantity-measured": "normalized growth",
    "measured": 1.01
  },
  {
    "compound": "C=C(C)C1Cc2c(ccc(C(=O)O)c2O)O1 (stereo not given)",
    "quantity-measured": "normalized growth",
    "measured": 0.985
  },
  {
    "compound": "CNC(=O)Oc1cccc2c1OC(C)(C)C2",
    "quantity-measured": "normalized growth",
    "measured": 0.993
  },
  {
    "compound": "CNC(C)[C@@H]1CC[C@@H](N)[C@@H](OC2[C@@H](N)C[C@@H](N)[C@H](OC3OC[C@](C)(O)[C@H](NC)[C@H]3O)[C@H]2O)O1 (stereo not given in full)",
    "quantity-measured": "normalized growth",
    "measured": 1.02
  },
  {
    "compound": "Cn1c(=O)c2c(ncn2CCO)n(C)c1=O",
    "quantity-measured": "normalized growth",
    "measured": 0.993
  },
  {
    "compound": "CCCN(CCC)c1c([N+](=O)[O-])cc(C(F)(F)F)cc1[N+](=O)[O-]",
    "quantity-measured": "normalized growth",
    "measured": 1.02
  }
]

// CC(=O)NS(=O)(=O)c1ccc(N)cc1 : normalized growth value = 0.996

// O=C(CCc1ccc(O)cc1)c1c(O)cc(O)cc1O : normalized growth value = 1.02

// CNC(=O)Oc1ccccc1OC(C)C : normalized growth value = 0.992

// CC[C@H]1OC(=O)[C@H](C)[C@@H](O[C@H]2C[C@@](C)(OC)[C@@H](O)[C@H](C)O2)[C@H](C)[C@@H](O[C@@H]2O[C@H](C)C[C@H](N(C)C)[C@H]2O)[C@](C)(O)C[C@@H](C)/C(=N/OCOCCOC)[C@H](C)[C@@H](O)[C@]1(C)O : normalized growth value = 1.02

// Cc1c(NC(C)C)c(=O)n(-c2ccccc2)n1C : normalized growth value = 0.971

// O=C1C=C(O)c2ccccc2C1=O : normalized growth value = 0.952

// CC(C)OC(=O)Nc1cccc(Cl)c1 : normalized growth value = 0.977

// O=C(c1ccccc1)c1ccc2n1CCC2C(=O)O (stereo not given) : normalized growth value = 0.971

// COc1cc2cccc(OC)c(=O)c2c(OC)c1OC : normalized growth value = 1.02

// O=C(Nc1ccc([N+](=O)[O-])cc1Cl)c1cc(Cl)ccc1O : normalized growth value = 1.03

// COc1ccc(-c2c(OC)c3c(OC)c4c(cc3oc2=O)OC(C)(C)C=C4)cc1 : normalized growth value = 1

// CCCCN(CC)c1c([N+](=O)[O-])cc(C(F)(F)F)cc1[N+](=O)[O-] : normalized growth value = 1.01

// CC(=O)CCCCn1c(=O)c2c(ncn2C)n(C)c1=O : normalized growth value = 0.996

// CC(=O)OC[C@@]1(O)C[C@@]23CCC4c5ccoc5CC[C@]4(C)C2CC[C@@H]1C3 (stereo not given in full) : normalized growth value = 0.95

// CCCCCC/C=C\CCCCCCCc1cccc(O)c1C(=O)O : normalized growth value = 0.988

// COc1ccccc1OCC(O)COC(N)=O (stereo not given) : normalized growth value = 0.989

// COc1ccc(CC(=O)c2ccc(O)cc2O)cc1 : normalized growth value = 0.972

###

Quick reference: normalized growth of the listed items.
# test-summary: chemical genetic growth profiling, strain panel (AID 1159580);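 note: tested at 20 µM; growth read once vehicle control cultures reached saturation at 30 °C; 1 = growth at the plate median or of vehicle wells; lower values mean less growth of the strain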
# condition-context: S. cerevisiae deletion strains, growth OD, locus YCL029C, strain bik1, active compounds read low
The whole screen tested about 5,500 compounds, of which about 2,000 (36%) were called active. About 18% were inconclusive and are not listed. Some of the results follow.
// print number alone

Reference set, count: 8
[
  {
    "compound": "Cn1c(=O)c2c(ncn2CCCl)n(C)c1=O",
    "normalized growth": 1.03
  },
  {
    "compound": "COc1ccc(/C=C/c2cc(O)cc(O[C@@H]3O[C@H](CO)[C@@H](O)[C@H](O)[C@H]3O)c2)cc1",
    "normalized growth": 0.984
  },
  {
    "compound": "CC(=O)NS(=O)(=O)c1ccc(N)cc1",
    "normalized growth": 0.973
  },
  {
    "compound": "CC(C)N1C(=O)c2ccccc2NS1(=O)=O",
    "normalized growth": 0.999
  },
  {
    "compound": "O=C(/C=C/c1ccc(O)cc1)c1ccc(O)cc1O",
    "normalized growth": 0.945
  },
  {
    "compound": "CCCCCC/C=C\\CCCCCCCc1cccc(O)c1C(=O)O",
    "normalized growth": 0.985
  },
  {
    "compound": "CCCCN(CC)c1c([N+](=O)[O-])cc(C(F)(F)F)cc1[N+](=O)[O-]",
    "normalized growth": 1.02
  },
  {
    "compound": "O=C(N[C@@H](CO)[C@H](O)c1ccc([N+](=O)[O-])cc1)C(Cl)Cl",
    "normalized growth": 1.03
  }
]

// O=C(O)c1cccnc1C(=O)O : normalized growth value = 0.991

// O=C(/C=C/c1ccccc1)c1ccc(O[C@@H]2O[C@H](CO)[C@@H](O)[C@H](O)[C@H]2O)cc1O : normalized growth value = 0.889

// C[N+]12CCC(CC1)C(OC(=O)C(O)(c1ccccc1)c1ccccc1)C2 (centres undefined) : normalized growth value = 0.956

// CNC(C)[C@@H]1CC[C@@H](N)[C@@H](OC2[C@@H](N)C[C@@H](N)[C@H](OC3OC[C@](C)(O)[C@H](NC)[C@H]3O)[C@H]2O)O1 (some centres undefined) : normalized growth value = 1.01

// O=C1c2ccccc2C(=O)c2ccccc21 : normalized growth value = 0.994

// O=C1NS(=O)(=O)c2ccccc21 : normalized growth value = 0.994
